Measurement Notes: Volume of distribution in monkey at 1 mg/kg, iv
Type: ADME, organism-based, Macaca mulatta
Condition Info: rhesus monkey, in vivo
Quantity Kind: Vd (L/kg)
Give the number; L/kg is assumed, so skip it.

Returns the measured Vd for the input molecule. Input: O=C(O)CCC(=O)N(C1CC1)[C@H]1c2cc(F)ccc2N(C(=O)c2ccc(OC(F)(F)F)cc2)[C@H]2CCC[C@H]21 5.8

====

Measurement Notes: AUC in rhesus monkey at 10 mg/kg, po
Assay type: ADME, organism-based, Macaca mulatta
Condition Info: in vivo
Quantity Kind: AUC (µM·h)
Write the number in µM·h without appending the unit.

I would be grateful if you could share the reported AUC for O=C(O)CCC(=O)N(C1CC1)[C@H]1c2cc(F)ccc2N(C(=O)c2ccc(OC(F)(F)F)cc2)[C@H]2CCC[C@H]21 . 6.76
